# assay.procedure: Metabolic (microsomal) stability assay, human liver microsomes (HLM)
# Type: in vitro ADME
# experimental.context: predicted clearance as percent of liver blood flow, 1 μM
Measured HLM QH of individual entries

Look over these answered cases.
Form: molecule = C[C@H](Oc1cc(N2C[C@@H](N(C)C)[C@@H](O)C2)nc(-c2noc3c2CCC[C@@]32CCCc3sc(N)c(C#N)c32)n1)[C@@H]1CCCN1C ; HLM QH = <24%

Form: molecule = C[C@H](Oc1cc(-n2ccc(C(=O)N[C@@H]3CCOC3)n2)nc(-c2onc3c2CCC[C@@]32CCCc3sc(N)c(C#N)c32)n1)[C@@H]1CCCN1C ; HLM QH = 25%

Form: molecule = C[C@H](Oc1cc(N2CCNC[C@@]23CCOC3)nc(-c2onc3c2CCC[C@@]32CCCc3sc(N)c(C#N)c32)n1)[C@@H]1CCCN1C ; HLM QH = <24%

Form: molecule = C[C@H](Oc1cc(N2C[C@H](C)N(C)[C@@H](C)C2)nc(-c2onc3c2CCC[C@@]32CCCc3sc(N)c(C#N)c32)n1)[C@@H]1CCCN1C ; HLM QH = <24%

Form: molecule = COCCNC(=O)c1ccn(-c2cc(O[C@@H](C)[C@@H]3[C@@H](OC)CCN3C)nc(-c3onc4c3CCC[C@@]43CCCc4sc(N)c(C#N)c43)n2)n1 ; HLM QH = 56%

Kindly consider the entry below.
Form: molecule = C[C@H](Oc1cc(-c2ccn(C[C@@H]3CCCO3)n2)nc(-c2noc3c2CCC[C@@]32CCCc3sc(N)c(C#N)c32)n1)[C@@H]1CCCN1C ; HLM QH = <24%

----------
# assay.procedure: Solubility measurement (DMSO solution method), McIlvaine buffer pH 4.5 or 6.8
# Type: physicochemical
# experimental.context: aqueous buffer, kinetic from dmso stock; McIlvaine buffer pH 6.8; DMSO stock diluted to 250 μM; 24 h shaking at ambient temperature; read-out: solubility pH 6.8
property.label: solubility at 24 h (µg/mL)

Look over these answered cases.
Form: compound = CO[C@H]1CCN(C)[C@@H]1[C@H](C)Oc1cc(-n2ccc(C(N)=O)n2)nc(-c2noc3c2CCC[C@@]32CCCc3sc(N)c(C#N)c32)n1 ; solubility at 24 h = 6

Form: compound = Cc1cn(C)nc1-c1cc(O[C@@H](C)[C@@H]2CCCN2C)nc(-c2noc3c2CCC[C@@]32CCCc3sc(N)c(C#N)c32)n1 ; solubility at 24 h = 5

Form: compound = C[C@H](Oc1cc(N2CCNC3(COC3)C2)nc(-c2noc3c2CCC[C@@]32CCCc3sc(N)c(C#N)c32)n1)[C@@H]1C[C@@H](F)CN1C ; solubility at 24 h = 57

Form: compound = C[C@H](O)Cn1ncc(-c2cc(O[C@@H](C)[C@@H]3CCCN3C)nc(-c3noc4c3CCC[C@@]43CCCc4sc(N)c(C#N)c43)n2)n1 ; solubility at 24 h = 105

Form: compound = C[C@H](O)Cn1ccc(-c2cc(O[C@@H](C)[C@@H]3CCCN3C)nc(-c3noc4c3CCC[C@@]43CCCc4sc(N)c(C#N)c43)n2)n1 ; solubility at 24 h = 121

Form: compound = CO[C@@H]1C[C@@H]([C@H](C)Oc2cc(N3CCN(C)C4(CC4)C3)nc(-c3onc4c3CCC[C@@]43CCCc4sc(N)c(C#N)c43)n2)N(C)C1 ; solubility at 24 h = 95

Form: compound = C[C@H](Oc1cc(N2CCCC3(COC3)C2)nc(-c2noc3c2CCC[C@@]32CCCc3sc(N)c(C#N)c32)n1)[C@@H]1CCCN1C ; solubility at 24 h = 89

Form: compound = C[C@H](Oc1cc(N2CC[C@@H](O)C2)nc(-c2noc3c2CCC[C@@]32CCCc3sc(N)c(C#N)c32)n1)[C@@H]1CCCN1C ; solubility at 24 h = 112

[A] C[C@H](Oc1cc(-n2cc3c(n2)CN(C)C3)nc(-c2noc3c2CCC[C@@]32CCCc3sc(N)c(C#N)c32)n1)[C@@H]1CCCN1C
[B] C[C@H](Oc1cc(C2=CCOCC2)nc(-c2noc3c2CCC[C@@]32CCCc3sc(N)c(C#N)c32)n1)[C@@H]1CCCN1C
[C] C[C@H](Oc1cc(-c2cnsc2)nc(-c2onc3c2CCC[C@@]32CCCc3sc(N)c(C#N)c32)n1)[C@@H]1CCCN1C
### Prompt Arrange these compounds by their solubility at 24 h, starting with the largest number. Thanks in advance for listing the labels in the requested order.
### Response A, B, C
(A: 115 µg/mL, B: 41 µg/mL, C: 1 µg/mL)
